Quick reference: IC50 of pseudo virus neutralization H1N1 CA/09 of the listed items.
- test target: full-length H1 A/California/07/2009 HA expressed on 293T cells (influenza A virus A/California/07/2009 (H1N1))
- protocol details: cell-based or functional assay

Would you please look over these solved cases?
- binder: "P44 (antibody, V domains shown) VH: EVQLVESGGGLVQPGGSLRLSCAASGFTIDGWWIHWVRQAPGKGLEWVAGIWPFGGFTSYADSVKGRFTISADTSKNTAYLQMNSLRAEDTAVYYCARSYSGYSGDYWGQGTLVTVSS VL: DIQMTQSPSSLSASVGDRVTITCRASQDVNNNVAWYQQKPGKAPKLLIYWSSSLYSGVPSRFSGSGSGTDFTLTISSLQPEDFATYYCQQYYNFPVTFGQGTKVEIKR"
  value observed: "> 100 µg/mL"
- binder: "S11 (antibody, V domains shown) VH: EVQLVESGGGLVQPGGSLRLSCAASGFTIDNGGIHWVRQAPGKGLEWVAWIGPYGGSTSYADSVKGRFTISADTSKNTAYLQMNSLRAEDTAVYYCARFGFGLHDLMDYWGQGTLVTVSS VL: DIQMTQSPSSLSASVGDRVTITCRASQDVYSWVAWYQQKPGKAPKLLIYYSSFLYSGVPSRFSGSGSGTDFTLTISSLQPEDFATYYCQQYYNGPLTFGQGTKVEIKR"
  value observed: "> 100 µg/mL"

Now for the binder whose IC50 of pseudo virus neutralization H1N1 CA/09 we want.
Could you share which IC50 of pseudo virus neutralization H1N1 CA/09 value was measured for S10 (antibody, V domains shown) VH: EVQLVESGGGLVQPGGSLRLSCAASGFTIGGYGIHWVRQAPGKGLEWVASIGPSWGFTFYADSVKGRFTISADTSKNTAYLQMNSLRAEDTAVYYCARFNWVINGVTDYWGQGTLVTVSS VL: DIQMTQSPSSLSASVGDRVTITCRASQDVSYYVAWYQQKPGKAPKLLIFWSTFLYSGVPSRFSGSGSGTDFTLTISSLQPEDFATYYCQQYYDSPMTFGQGTKVEIKR ? 0.349 µg/mL
